Hello, the source for this data is patent US8734673B2, in case you need it.

Known Interaction parameter s (dipolarity/polarizability) of a selection of molecules
Assay: Solvation interaction parameters by inverse gas-liquid chromatography (Abraham model)
Format: physicochemical
Conditions: 100° C.
Experimental: The preparation of the capillary columns for inverse gas-liquid chromatographic analysis was performed using a previously described procedure. All capillary columns had efficiencies between 2100 to 2500 plates/meter. […] Previously we characterized a large number of room temperature ionic liquids in terms of multiple solvation interactions using the solvation parameter model, shown in equation log k=c+rR2+sπ2^H+aα2^H+bβ2^H+l log L^16 [3] […] The retention factor is determined chromatographically. […]
Lab note: record the figure alone, no unit after it.

Consider the worked cases shown below.
molecule	assay value
CCCCn1cc[n+](C)c1.O=S(=O)([N-]S(=O)(=O)C(F)(F)F)C(F)(F)F [BMIM-NTf2, reference compound]	1.60
O=S(=O)([N-]S(=O)(=O)C(F)(F)F)C(F)(F)F.O=S(=O)([N-]S(=O)(=O)C(F)(F)F)C(F)(F)F.c1ccc(Cn2cc[n+](CCCCCCCCCCCC[n+]3ccn(Cc4ccccc4)c3)c2)cc1	1.47
Cn1cc[n+](CCCCCCCCC[n+]2ccn(C)c2)c1.O=S(=O)([N-]S(=O)(=O)C(F)(F)F)C(F)(F)F.O=S(=O)([N-]S(=O)(=O)C(F)(F)F)C(F)(F)F	1.64
C[N+]1(CCCCCCCCC[N+]2(C)CCCC2)CCCC1.O=S(=O)([N-]S(=O)(=O)C(F)(F)F)C(F)(F)F.O=S(=O)([N-]S(=O)(=O)C(F)(F)F)C(F)(F)F	1.49

# evaluate next
Return reported Interaction parameter s (dipolarity/polarizability); argument: `C[n+]1ccn(CCCCn2cc[n+](C)c2)c1.O=S(=O)([N-]S(=O)(=O)C(F)(F)F)C(F)(F)F.O=S(=O)([N-]S(=O)(=O)C(F)(F)F)C(F)(F)F`
1.69

====

assay: Solvation interaction parameters by inverse gas-liquid chromatography (Abraham model); type: physicochemical; conditions: 70° C.
measurement label: Interaction parameter l (dispersion forces)
// response body must contain only the number

compound	assay value
Cn1cc[n+](CCCCCCCCC[n+]2ccn(C)c2)c1.O=S(=O)([N-]S(=O)(=O)C(F)(F)F)C(F)(F)F.O=S(=O)([N-]S(=O)(=O)C(F)(F)F)C(F)(F)F	0.51
O=S(=O)([N-]S(=O)(=O)C(F)(F)F)C(F)(F)F.O=S(=O)([N-]S(=O)(=O)C(F)(F)F)C(F)(F)F.c1ccc(Cn2cc[n+](CCCCCCCCCCCC[n+]3ccn(Cc4ccccc4)c3)c2)cc1	0.56
CCCCn1cc[n+](C)c1.O=S(=O)([N-]S(=O)(=O)C(F)(F)F)C(F)(F)F [BMIM-NTf2, reference compound]	0.56
C[n+]1ccn(CCCCn2cc[n+](C)c2)c1.O=S(=O)([N-]S(=O)(=O)C(F)(F)F)C(F)(F)F.O=S(=O)([N-]S(=O)(=O)C(F)(F)F)C(F)(F)F	0.44

Turning now to a further compound:
Item `C[N+]1(CCCCCCCCC[N+]2(C)CCCC2)CCCC1.O=S(=O)([N-]S(=O)(=O)C(F)(F)F)C(F)(F)F.O=S(=O)([N-]S(=O)(=O)C(F)(F)F)C(F)(F)F` has what recorded Interaction parameter l (dispersion forces)?
0.48
